Numbers sourced from the NIST ThermoML archive (doi:10.1016/j.jct.2008.12.011).

Assay: cn = amount concentration of the nth substance listed, in mol/dm3
Details: 308.15 K; 101.3 kPa; Liquid; Vibrating tube method; c1 = 3
Numbers after ± are expanded uncertainties.
attribute.measured: mass density

Use the examples below as a reference point.
compound: [Br-].[K+] [potassium bromide] + O
attribute.measured: mass density
observed: 1233.52 ± 1 kg/m3
--
compound: CC(=O)[O-].[K+] [potassium ethanoate] + O
attribute.measured: mass density
observed: 1122.15 ± 1 kg/m3
--
compound: [Cl-].[K+] [potassium chloride] + O
attribute.measured: mass density
observed: 1119.56 ± 1 kg/m3

Now consider the entry below.
Sample [Cl-].[Na+] [sodium chloride] + O — what was its mass density?
1104.62 ± 1 kg/m3

---

Test: cn = amount concentration of the nth substance listed, in mol/dm3
Conditions: 318.15 K; 101.3 kPa; Liquid; Vibrating tube method; c1 = 1.5
Recorded mass density by entry
Provide only the numeric value, understood in kg/m3.

Use the examples below as a reference point.
compound: [Br-].[K+] [potassium bromide] + O
mass density / kg/m3: 1106.96
--
compound: CC(=O)[O-].[K+] [potassium ethanoate] + O
mass density / kg/m3: 1057.02
--
compound: [Cl-].[K+] [potassium chloride] + O
mass density / kg/m3: 1049.38

Now consider the entry below.
Sample [Cl-].[Na+] [sodium chloride] + O — what was its mass density?
1046.65

---

Assay: cn = amount concentration of the nth substance listed, in mol/dm3
Conditions: 303.15 K; 101.3 kPa; Liquid; Vibrating tube method; c1 = 1.5
attribute.measured: mass density (kg/m3)
Provide only the numeric value, understood in kg/m3.

Use the examples below as a reference point.
molecule: [Cl-].[Na+] [sodium chloride] + O
u: kg/m3
mass density: 1055.01
--
molecule: [Cl-].[K+] [potassium chloride] + O
u: kg/m3
mass density: 1058.12
--
molecule: CC(=O)[O-].[K+] [potassium ethanoate] + O
u: kg/m3
mass density: 1064.76

Now consider the entry below.
Sample [Br-].[K+] [potassium bromide] + O — what was its mass density?
1117.57

---

Test: cn = amount concentration of the nth substance listed, in mol/dm3
Details: 313.15 K; 101.3 kPa; Liquid; Vibrating tube method; c1 = 2.5
attribute.measured: mass density (kg/m3)
Provide only the numeric value, understood in kg/m3.

compound: CC(=O)[O-].[K+] [potassium ethanoate] + O
attribute.measured: mass density
u: kg/m3
observed: 1100.19

compound: [Cl-].[K+] [potassium chloride] + O
attribute.measured: mass density
u: kg/m3
observed: 1095.37

compound: [Cl-].[Na+] [sodium chloride] + O
attribute.measured: mass density
u: kg/m3
observed: 1079.83

Now consider the entry below.
Sample [Br-].[K+] [potassium bromide] + O — what was its mass density?
1189.67

---

Recorded mass density by entry
Experiment: cn = amount concentration of the nth substance listed, in mol/dm3
Conditions: 303.15 K; 101.3 kPa; Liquid; Vibrating tube method; c1 = 1
Provide only the numeric value, understood in kg/m3.

Use the examples below as a reference point.
molecule: [Cl-].[Na+] [sodium chloride] + O
u: kg/m3
mass density: 1035.38

molecule: [Cl-].[K+] [potassium chloride] + O
u: kg/m3
mass density: 1041.13

molecule: CC(=O)[O-].[K+] [potassium ethanoate] + O
u: kg/m3
mass density: 1041.9

Sample [Br-].[K+] [potassium bromide] + O — what was its mass density?
1078.68
